- Tested on: corn
- procedure-details: Test A pre-/postemergence herbicide test
- Format: in vivo, Zea mays
- condition-description: Postemergence, 500 g ai/ha; 0 to 100 scale (0 no effect, 100 complete control)
value-kind: Plant response rating, Corn
Numbers only.

O=C1NCC(c2cccc(Oc3ccccc3)c2)C1C(=O)Nc1ccccc1Cl (stereo not drawn) [Compound 334] = 0

List the reported Plant response rating, Corn of each compound below.
1. O=C1NCC(c2ccc(F)c(F)c2)C1C(=O)Nc1ccc[nH]c1=O (racemic) [Compound 97]
2. O=C1NCC(c2cccc(F)c2)C1C(=O)Nc1ccccc1F (racemic) [Compound 1]
3. O=C1NCC(c2cccc(Br)c2)C1C(=O)Nc1ccccc1F (stereo not drawn) [Compound 307]
4. CN1CC(c2ccc(C(F)(F)F)cc2)C(C(=O)Nc2ccccc2F)C1=O (stereo not drawn) [Compound 304]
5. O=C1NCC(c2cccc(OC(F)(F)C(F)F)c2)C1C(=O)Nc1ccc(F)c(F)c1F (racemic) [Compound 124]
6. O=C1NCC(c2cc3ccccc3s2)C1C(=O)Nc1cccc(F)c1F (stereo not drawn) [Compound 296]
7. O=C1NCC(c2cc3ccccc3o2)C1C(=O)Nc1ccccc1F (racemic) [Compound 281]

Response given:
[0, 0, 60, 70, 50, 0, 0]

For this compound ( O=C1NCC(c2cccc(OC(F)F)c2)C1C(=O)Nc1ccc(F)c(F)c1F (stereo not drawn) [Compound 325] ), measured Plant response rating, Corn is 80

###

So I've got a bunch of compounds here, and I need their Plant response rating (scale of 0 to 100), Nutsedge, Yellow values.
- Tested on: nutsedge, yellow
- procedure-details: Test C pre-/postemergence herbicide test
- Format: in vivo, Cyperus esculentus
- condition-description: Preemergence, 250 g ai/ha
One number for each entry.

Answered cases to consult:
O=C1NCC(c2ccc(C(F)(F)F)nc2)C1C(=O)Nc1ccccc1F (racemic) = 0
O=C1NCC(c2cccc(C(F)(F)F)c2)C1C(=O)Nc1cccc(Cl)c1F (stereo not drawn) = 70
O=C1NCC(c2cccc(OC(F)F)c2)C1C(=O)Nc1ccc(F)c(F)c1F (stereo not drawn) = 0
O=C(Nc1ccccc1F)C1C(=S)NCC1c1cccc(C(F)(F)F)c1 (stereo not drawn) = 0
O=C1NCC(c2ccc(C(F)(F)F)c(F)c2)C1C(=O)Nc1ccccc1F (racemic) = 0

List the reported Plant response rating (scale of 0 to 100), Nutsedge, Yellow of each compound below.
1. O=C1NCC(c2cccc(Cl)c2)C1C(=O)Nc1cccc(F)c1F (racemic)
2. O=C1NCC(c2cc(F)cc(F)c2)C1C(=O)Nc1cccc(F)c1F (racemic)
3. O=C1NCC(c2cccc(C(F)(F)F)c2)C1C(=O)Nc1ccccc1Cl (stereo not drawn)
4. Cc1cccc(NC(=O)C2C(=O)NCC2c2cccc(C(F)(F)F)c2)c1 (stereo not drawn)

Response given:
[100, 55, 0, 70]

###

So I've got a bunch of molecules here, and I need their Plant response rating, Wheat values.
- Tested on: wheat (winter wheat)
- procedure-details: Test C pre-/postemergence herbicide test
- Type: in vivo, Triticum aestivum
- condition-description: Preemergence, 62 g ai/ha; scale 0 to 100

O=C1NCC(c2cccc(Br)c2)C1C(=O)Nc1ccccc1F (stereo not shown) = 0

List the reported Plant response rating, Wheat of each molecule below.
1. O=C1NCC(c2ccc3c(c2)OC(F)(F)O3)C1C(=O)Nc1cccc(F)c1F (stereo not shown)
2. O=C1NCC(c2ccc(F)c(C(F)(F)F)c2)C1C(=O)Nc1ccccc1F (racemic)
3. O=C1NCC(c2ccc(F)cc2)C1C(=O)Nc1cccc(F)c1F (racemic)

Response given:
[0, 45, 5]

###

So I've got a bunch of compounds here, and I need their Plant response rating, Corn values.
- Tested on: corn
- procedure-details: Test A pre-/postemergence herbicide test
- Assay type: in vivo, Zea mays
- condition-description: preemergence; 500 g ai/ha; 0 to 100 scale, 0 is no effect and 100 is complete control
- Description: […]
Give bare numbers.

O=C1NCC(c2ccc(C(F)(F)F)c(Cl)c2)C1C(=O)Nc1ccccc1F (racemic) = 0

List the reported Plant response rating, Corn of each compound below.
1. O=C1NCC(c2ccc(C(F)(F)F)c(Cl)c2)C1C(=O)Nc1ccccc1C(F)(F)F (racemic)
2. O=C1NCC(c2ccc(C(F)(F)F)nc2)C1C(=O)Nc1ccccc1C(F)(F)F (racemic)

Response given:
[0, 0]

###

- System: barnyardgrass
- procedure-details: Test C pre-/postemergence herbicide test
- Format: in vivo, Echinochloa crus-galli
- condition-description: Preemergence, 31 g ai/ha; scale 0 to 100, 0 is no effect and 100 is complete control
# cutoff 80 applies to Barnyardgrass plant response rating; >= gives 1 (yes), < gives 0 (no)

O=C1NCC(c2cccc(C(F)(F)F)c2)C1C(=O)Nc1ccc(F)cc1F (racemic) [Compound 207] = 0 (no)
O=C1NCC(c2ccc(F)c(C(F)(F)F)c2)C1C(=O)Nc1ccccc1C(F)(F)F (racemic) [Compound 78] = 0 (no)
O=C1NCC(c2ccc(C(F)(F)F)nc2)C1C(=O)Nc1ccccc1F (racemic) [Compound 262] = 0 (no)
CN1CC(c2ccc(F)cc2)C(C(=O)Nc2cccc(F)c2F)C1=O (stereo not shown) [Compound 271] = 1 (yes)

Challenge: Hi team, for O=C1NCC(c2cccc(OC(F)F)c2)C1C(=O)Nc1cccc(F)c1F (stereo not shown) [Compound 324] , is the recorded Barnyardgrass plant response rating at or above 80?
Response given: 1 (yes)

Challenge: Hi team, for O=C1NCC(c2cccc(Br)c2)C1C(=O)Nc1cccc(F)c1F (stereo not shown) [Compound 309] , is the recorded Barnyardgrass plant response rating at or above 80?
Response given: 0 (no)

Challenge: Hi team, for O=C1NCC(c2cccc(C(F)(F)F)c2)C1C(=O)Nc1ccccc1Cl (stereo not shown) [Compound 312] , is the recorded Barnyardgrass plant response rating at or above 80?
Response given: 1 (yes)

Challenge: Hi team, for Cc1cccc(NC(=O)C2C(=O)NCC2c2cccc(C(F)(F)F)c2)c1 (stereo not shown) [Compound 317] , is the recorded Barnyardgrass plant response rating at or above 80?
Response given: 1 (yes)

###

- System: giant foxtail
- procedure-details: Test A pre-/postemergence herbicide test
- Format: in vivo, Setaria faberii
- condition-description: Postemergence, 1000 g ai/ha; 0 to 100 scale (0 no effect, 100 complete control)
So I've got a bunch of molecules here, and I need their Plant response rating, Foxtail, Giant values.

Answered cases to consult:
Cn1cc(C2CNC(=O)C2C(=O)Nc2ccccc2F)cn1 (racemic) = 0
O=C1NCC(c2ccc(F)c(F)c2)C1C(=O)Nc1ccccc1 (racemic) = 80

For this molecule ( Cn1ccc(C2CNC(=O)C2C(=O)Nc2ccccc2C(F)(F)F)n1 (racemic) ), measured Plant response rating, Foxtail, Giant is 0

###

- System: ragweed
- procedure-details: Test A pre-/postemergence herbicide test
- Type: in vivo, Ambrosia elatior
- condition-description: Preemergence, 125 g ai/ha; 0 to 100 scale where 0 is no effect and 100 is complete control
So I've got a bunch of molecules here, and I need their Plant response rating, Ragweed values.
One number for each entry.

O=C1NCC(c2cccc(C(F)(F)F)c2)C1C(=O)Nc1ccccc1Cl (centres unmarked) = 0

List the reported Plant response rating, Ragweed of each molecule below.
1. O=C1NCC(c2cc3ccccc3s2)C1C(=O)Nc1cccc(F)c1F (centres unmarked)
2. O=C1NCC(c2cccc(Oc3ccccc3)c2)C1C(=O)Nc1ccccc1Cl (centres unmarked)
3. CN1CC(c2ccc(F)cc2)C(C(=O)Nc2cccc(F)c2F)C1=O (centres unmarked)
4. O=C1NCC(c2cnn(CC(F)(F)F)c2)C1C(=O)Nc1cccc(F)c1F (centres unmarked)

Response given:
1. 0
2. 0
3. 20
4. 0

###

- Test system: crabgrass, large
- procedure-details: Test C pre-/postemergence herbicide test
- Type: in vivo, Digitaria sanguinalis
- condition-description: Postemergence, 62 g ai/ha; scale 0 (no effect) to 100 (complete control)
- Description: […]
So I've got a bunch of compounds here, and I need their Plant response rating, Crabgrass, Large values.
Numbers only.

Cc1cccc(NC(=O)C2C(=O)NCC2c2cccc(C(F)(F)F)c2)c1 (stereo not shown) [Compound 317] = 25
O=C1NCC(c2cccc(C(F)(F)F)c2)C1C(=O)Nc1ccc(F)cc1F (racemic) [Compound 207] = 15
O=C1NCC(c2cc(F)cc(F)c2)C1C(=O)Nc1ccc(F)cc1F (racemic) [Compound 278] = 30

Here is another compound to look at.
For this compound ( O=C1NCC(c2cccc(Br)c2)C1C(=O)Nc1cccc(F)c1F (stereo not shown) [Compound 309] ), measured Plant response rating, Crabgrass, Large is 30

###

- Test system: morningglory
- procedure-details: Test C pre-/postemergence herbicide test
- Assay type: in vivo, Ipomoea coccinea
- condition-description: Preemergence, 250 g ai/ha
So I've got a bunch of molecules here, and I need their Plant response rating (scale of 0 to 100), Morningglory values.
Numbers only.

Answered cases to consult:
O=C1NCC(c2cccc(C(F)F)c2)C1C(=O)Nc1cccc(F)c1F (racemic) = 0
O=C1NCC(c2cc(F)cc(F)c2)C1C(=O)Nc1cccc(F)c1F (racemic) = 10
O=C1NCC(c2ccc(F)cc2)C1C(=O)Nc1cccc(F)c1F (racemic) = 35
O=C1NCC(c2cccc(Br)c2)C1C(=O)Nc1cccc(F)c1F (centres unmarked) = 10
O=C1NCC(c2cccc(C(F)(F)F)c2)C1C(=O)Nc1ccccc1Cl (centres unmarked) = 55

List the reported Plant response rating (scale of 0 to 100), Morningglory of each molecule below.
1. O=C1NCC(c2ccc(F)c(C(F)(F)F)c2)C1C(=O)Nc1ccccc1F (racemic)
2. O=C1NCC(c2cccc(OC(F)F)c2)C1C(=O)Nc1cccc(F)c1F (centres unmarked)
3. O=C1NCC(c2ccc(C(F)(F)F)cc2)C1C(=O)Nc1ccc(F)c(F)c1F (centres unmarked)

Response given:
[40, 55, 20]

All figures here come from patent US10294202B2.
